Sourced from patent US9243247B2

Let's look at some substances and their measured Relative Cell Growth.
# System: AGS cell strain
# assay: Cell growth test (CCK-8 assay) after transfection of BART miRNA mimics
# Assay type: cell-based
# test settings: mimic 10 nM, 72 hours after transfection, relative to scrambled control (=1), n=9
Lab note: record just the number, no unit beside it.

// known answers, use as guide
substance	Relative Cell Growth
BART2-3p: EBV BART miRNA mimic, double stranded RNA; sense SEQ NO: 87, antisense SEQ NO: 88 (sense AAGGAGCGAUUUGGAGAAAAUAAA; antisense UUUAUUUUCUCCAAAUCGCUCCUU; chemistry not given here)	1.433
BART3-3p: EBV BART miRNA mimic, double stranded RNA; sense SEQ NO: 3, antisense SEQ NO: 4 (sense CGCACCACUAGUCACCAGGUGU; antisense ACACCUGGUGACUAGUGGUGCG; chemistry not given here)	1.135
BART10-3p: EBV BART miRNA mimic, double stranded RNA; sense SEQ NO: 59, antisense SEQ NO: 60 (sense UACAUAACCAUGGAGUUGGCUGU; antisense ACAGCCAACUCCAUGGUUAUGUA; chemistry not given here)	1.591
BART5-5p: EBV BART miRNA mimic, double stranded RNA; sense SEQ NO: 17, antisense SEQ NO: 18 (sense CAAGGUGAAUAUAGCUGCCCAUCG; antisense CGAUGGGCAGCUAUAUUCACCUUG; chemistry not given here)	0.5231

Could you now look at the following substance, please?
Lookup result for BART12-5p: EBV BART miRNA mimic, double stranded RNA; sense SEQ NO: 65, antisense SEQ NO: 66 (sense ACCCGCCCAUCACCACCGGAC; antisense GUCCGGUGGUGAUGGGCGGGU; chemistry not given here) ; measured Relative Cell Growth: 1.159
